Every entry's value here was drawn from the Immune Epitope Database (IEDB).

Kd values by entry
# system: HLA-B*44:02
# method-notes: IEDB peptide-MHC binding, purified MHC/direct/fluorescence; filed as Kd, often an IC50 or EC50 that approximates it; bounds were set here for any values at or beyond the usual limits of such assays
# assay-setup: source organism: West Nile virus
value-kind: Kd

> print(dat)
   primary.sequence  experimental.result
1         KCRVKMEKL              ≥ 20 µM
2         GHGTVVLEL              ≥ 20 µM
3         TEGEGRVIL              ≥ 20 µM

====

# system: HLA-B*18:01
# method-notes: IEDB peptide-MHC binding, purified MHC/competitive/fluorescence; filed as Kd, often an IC50 or EC50 that approximates it; bounds were set here for any values at or beyond the usual limits of such assays
# assay-setup: source organism: Salmonella enterica subsp. enterica serovar Typhi
pKd: −log10 of the molar value.
value-kind: pKd

> print(dat)
   primary.sequence  value.kind  experimental.result
1         KTVRYWHRF         pKd               ≤ 4.70
